FYI, the data here is from ChEMBL document CHEMBL6103659.

Here's a batch of molecules along with measured Ki for UniProt:P07451.
Sequence (P07451 whole entry): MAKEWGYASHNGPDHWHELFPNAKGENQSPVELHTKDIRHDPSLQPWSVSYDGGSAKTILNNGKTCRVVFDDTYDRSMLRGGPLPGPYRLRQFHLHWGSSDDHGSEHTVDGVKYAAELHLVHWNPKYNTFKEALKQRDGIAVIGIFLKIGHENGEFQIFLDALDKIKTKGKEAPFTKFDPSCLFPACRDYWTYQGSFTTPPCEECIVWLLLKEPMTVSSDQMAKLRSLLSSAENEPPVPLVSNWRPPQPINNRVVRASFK

Please look up its Ki: NS(=O)(=O)c1ccc(N2CCN(CC[C@@H]3OCCc4ccccc43)CC2)cc1 [SONEPIPRAZOLE] > 10 µM

Please turn your attention to the following entry.
What does the data say about its Ki? Entry: C=CCN1CCCC1CNC(=O)c1cc(S(N)(=O)=O)cc(OC)c1OC (configuration not stated) [VERALIPRIDE] > 10 µM

====

biological target: Carbonic anhydrase 2 (Homo sapiens, UniProt P00918)
Measurement Kind: pKi
Kindly note that pKi refers to -log10 of the concentration in mol/L and answer with the value alone.

// lookup pKi | system=Carbonic anhydrase 2 (Homo sapiens, UniProt P00918) | key= C=CCN1CCCC1CNC(=O)c1cc(S(N)(=O)=O)cc(OC)c1OC (stereo unspecified) [VERALIPRIDE] 6.39
